tested on: P. falciparum 3D7 growth, pLDH absorbance; experiment: blood-stage malaria parasite growth potency – strain 3D7, dose response (AID 2305)
Could you please report measured IC50 for the items listed next?
Write it as a number; the unit nM goes unstated.

Please report IC50 with P. falciparum 3D7 growth, pLDH absorbance for item NC(N)=Nc1nc(-c2cccc(NC(=O)NCc3cccc4ccccc34)c2)cs1 . 840

Please report IC50 with P. falciparum 3D7 growth, pLDH absorbance for item CCCCCCNc1c2ccccc2nc2ccccc12 . 950

Please report IC50 with P. falciparum 3D7 growth, pLDH absorbance for item COc1ccc2nc(-c3ccccc3)cc(NN=Cc3ccc([N+](=O)[O-])o3)c2c1 . 200

Please report IC50 with P. falciparum 3D7 growth, pLDH absorbance for item O=C(Nc1cccc(-c2nc3ccccc3[nH]2)c1)c1cccc(NC(=O)c2ccco2)c1 . 360

Please report IC50 with P. falciparum 3D7 growth, pLDH absorbance for item O=C(NCc1ccccn1)C(c1cc2ccccc2o1)N1CCN(C(c2ccccc2)c2ccccc2)CC1 (stereo not given) . 860

Please report IC50 with P. falciparum 3D7 growth, pLDH absorbance for item Cc1noc(C)c1-c1cccc(CNCc2cccc(-c3ccc(-c4nc5c(C)cccc5[nH]4)cc3)c2)c1 . 190

Please report IC50 with P. falciparum 3D7 growth, pLDH absorbance for item COc1ccc2nc(C)cc(Nc3ccc(Cl)cc3)c2c1 . 950

Please report IC50 with P. falciparum 3D7 growth, pLDH absorbance for item CCOc1ccc2nc3cc(N)ccc3c(N)c2c1 . 530

Please report IC50 with P. falciparum 3D7 growth, pLDH absorbance for item O=c1c2sc(-c3ccc(Cl)cc3)cc2ncn1Cc1ccc(OCCN2CCCC2)c2ccccc12 . 250

Please report IC50 with P. falciparum 3D7 growth, pLDH absorbance for item COc1ccc(Oc2ccc(-c3c(C)[nH]c(C)c(Cl)c3=O)cc2)cc1 . 140

Please report IC50 with P. falciparum 3D7 growth, pLDH absorbance for item Cc1nc2ccc3ccc(CNc4ccc5c(c4)CN([C@H](CCC(=O)O)C(=O)O)C5=O)cc3c2c(=O)[nH]1 . 860

Please report IC50 with P. falciparum 3D7 growth, pLDH absorbance for item NC(=O)c1ccccc1Nc1nc(Nc2cccc(N3CCN(CCO)CC3)c2)ncc1Cl . 40

Please report IC50 with P. falciparum 3D7 growth, pLDH absorbance for item COc1ccc2nccc([C@@H](O)CN3CCC(NCCOc4ccc(F)cc4Cl)CC3)c2c1 . 280

Please report IC50 with P. falciparum 3D7 growth, pLDH absorbance for item NS(=O)(=O)c1cccc(-c2ccc3c(=O)[nH]cnc3c2)c1 . 950

Please report IC50 with P. falciparum 3D7 growth, pLDH absorbance for item CC(C)CNC(=O)c1cncc(-c2ccc(CNC3Cc4ccccc4C3)cc2)c1 . 700

Please report IC50 with P. falciparum 3D7 growth, pLDH absorbance for item O=C(Nc1ccc(C(=O)Oc2ccc(-c3ccccc3)cc2)cc1)N[C@@H](Cc1ccc(O)cc1)C(=O)NC1CCN(Cc2ccc(O)cc2)C1 (stereo not given in full) . 800

Please report IC50 with P. falciparum 3D7 growth, pLDH absorbance for item CN(C)CCNCc1ccc(-c2ccc3c(Nc4ccc(Oc5ccccc5)cc4)ccnc3c2)o1 . 280

Please report IC50 with P. falciparum 3D7 growth, pLDH absorbance for item CCCCN(CCCC)CCNC(=O)c1cc(OC(F)(F)F)ccc1O . 920

Please report IC50 with P. falciparum 3D7 growth, pLDH absorbance for item COc1ccc2nc(C)cc(Nc3ccc(Oc4ccc(Br)c5ccccc45)c(Cl)c3)c2c1 . 280

Please report IC50 with P. falciparum 3D7 growth, pLDH absorbance for item Nc1cc(C(F)(F)F)ccc1Cl . 740
